Note to self: these compounds have IC50 reported for RON (Homo sapiens, UniProt Q04912) in various publications.

Cn1cc(-n2ncc(C(=O)Nc3ccc(Oc4ccnc(N)c4Cl)c(F)c3)c2C(F)(F)F)cn1; 50 to 500 nM

Entry under review: "Nc1nccc(-c2cc(Oc3ccc(NC(=O)C4(C(=O)Nc5ccc(F)cc5)CC4)cc3F)ccc2O)n1" . Reported IC50?
362 nM

Entry under review: "Cc1ccnc(-n2ncc(C(=O)Nc3ccc(Oc4ncnc(N)c4Cl)c(F)c3)c2C(F)(F)F)c1" . Reported IC50?
50 to 500 nM

Entry under review: "CC(C)n1c(=O)[nH]c2nccc(Oc3ccc(NC(=O)c4cnn(-c5nccc6ccccc56)c4C(F)(F)F)cc3F)c21" . Reported IC50?
< 50 nM
